target: human PAH with the R408W mutation (Homo sapiens, UniProt P00439, R408W); construct: expressed in transfected cells; experiment: Cell Based Phenylalanine Flux Assay; details: A375 cells expressing human PAH R408W; 24 hrs compound incubation; 13C-Tyrosine by LC-MS; average where tested multiple times; read-out: AC50
Sequence (P00439 whole entry R408W): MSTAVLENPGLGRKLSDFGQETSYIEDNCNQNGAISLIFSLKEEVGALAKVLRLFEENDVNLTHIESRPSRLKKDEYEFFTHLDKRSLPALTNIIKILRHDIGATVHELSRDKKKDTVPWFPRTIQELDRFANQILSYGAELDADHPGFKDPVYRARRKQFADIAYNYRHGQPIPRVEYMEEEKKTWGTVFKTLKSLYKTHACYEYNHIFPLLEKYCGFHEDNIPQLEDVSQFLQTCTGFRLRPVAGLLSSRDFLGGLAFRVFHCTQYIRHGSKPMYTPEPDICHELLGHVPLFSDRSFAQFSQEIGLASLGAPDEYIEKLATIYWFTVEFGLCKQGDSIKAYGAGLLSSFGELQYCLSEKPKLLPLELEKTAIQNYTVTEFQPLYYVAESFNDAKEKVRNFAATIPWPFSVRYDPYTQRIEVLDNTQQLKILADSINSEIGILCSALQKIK
Each item that follows carries a reported AC50.

compound	AC50
O=C(c1ccnn1C1CC1)N1CCc2[nH]cnc2[C@H]1c1cc2ccccn2n1 [Example 2386]	1000 to 5000 nM
FC(F)c1nnc(N2CCc3[nH]cnc3[C@H]2c2cc3ccccn3n2)o1 [Example 2461]	1000 to 5000 nM
O=C(c1nc2ccccc2s1)N1CCc2[nH]cnc2[C@@H]1c1cc2ccccn2n1 [Example 2001]	> 5000 nM
CC(C)(C)c1nnc(C(=O)N2CCc3[nH]cnc3[C@H]2c2cc3cccc(C(F)(F)F)n3n2)o1 [Example 2409]	1000 to 5000 nM
O=C(c1ocnc1C(F)F)N1CCc2[nH]cnc2[C@H]1c1cc2cc(F)ccn2n1 [Example 2400]	< 500 nM
Cc1ccc2cc([C@@H]3c4nc[nH]c4CCN3C(=O)c3nc(C(F)F)nn3C)nn2c1 [Example 2403]	1000 to 5000 nM
FC(F)c1cccc2cc([C@@H]3c4nc[nH]c4CCN3c3nnc(-c4cnccn4)o3)nn12 [Example 2521]	1000 to 5000 nM
Cc1ccn2nc([C@@H]3c4nc[nH]c4CCN3C(=O)c3nnc(-c4ccccn4)o3)cc2c1 [Example 2384]	1000 to 5000 nM
FC(F)(F)Oc1cccn2nc([C@@H]3c4nc[nH]c4CCN3c3ccc(C(F)(F)F)cn3)cc12 [Example 2348]	500 to 1000 nM
Cc1cccn2nc([C@@H]3c4nc[nH]c4CCN3C(=O)c3nc4ccccc4s3)cc12 [Example 2502]	1000 to 5000 nM

====

target: human PAH with the R408W mutation (Homo sapiens, UniProt P00439, R408W); construct: expressed in transfected cells; assay: Cell Based Phenylalanine Flux Assay; settings: A375 cells expressing human R408W PAH; 24 hrs compound incubation; 13C-Tyrosine by LC-MS; average where tested multiple times; read-out: AC50;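 further: after compound treatment, cells received sepiapterin plus isotope-labelled Phenylalanine for 4 hours, then labelled Tyrosine in the medium was quantified, 10-point 2-fold dilution series run in duplicate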
Each item that follows carries a reported AC50.

compound	AC50
O=C(c1nnc(-c2ccn(C(F)F)n2)o1)N1CCc2[nH]cnc2[C@H]1c1cc2c(OC(F)(F)F)cccn2n1 [Example 1704]	< 500 nM
Cn1ccc(-c2nnc(C(=O)N3CCc4[nH]cnc4[C@@H]3c3cc4cccc(C(F)F)n4n3)o2)n1 [Example 1439]	> 5000 nM
O=C(c1ccnn1C(F)F)N1CCc2[nH]cnc2[C@H]1c1cc2ccccn2n1 [Example 656]	< 500 nM
O=C(c1cnn2cc(C3CC3)ccc12)N1CCc2[nH]cnc2[C@H]1c1cc2cccc(Cl)n2n1 [Example 1744]	1000 to 5000 nM
Cc1cnn(C)c1-c1nnc(C(=O)N2CCc3[nH]cnc3[C@@H]2c2cc3c(C)cccn3n2)o1 [Example 927]	> 5000 nM
O=C(c1nnc(C2CCC2)o1)N1CCc2[nH]cnc2[C@H]1c1cc2cccc(Cl)n2n1 [Example 1561]	< 500 nM
Cn1cnc(-c2nnc(C(=O)N3CCc4[nH]cnc4[C@H]3c3cc4cccc(Cl)n4n3)o2)c1 [Example 1099]	500 to 1000 nM
O=C(c1nnc(-c2ncccc2F)o1)N1CCc2[nH]cnc2[C@@H]1c1cc2c(OC(F)F)cccn2n1 [Example 1656]	> 5000 nM
Cn1cc(C(=O)N2CCc3[nH]cnc3[C@H]2c2cc3ccccn3n2)c(C(F)F)n1 [Example 662]	< 500 nM
O=C(c1ccnn1C(F)F)N1CCc2[nH]cnc2[C@H]1c1cc2c(F)cccn2n1 [Example 776]	< 500 nM
O=C(c1nnc(-c2cnn(C(F)F)c2)o1)N1CCc2[nH]cnc2[C@@H]1c1cc2cccc(C(F)F)n2n1 [Example 1441]	> 5000 nM
O=C(c1nnc(-c2cccnc2)o1)N1CCc2[nH]cnc2[C@H]1c1cc2cccc(Cl)n2n1 [Example 1306]	< 500 nM
Cc1cccc(-c2nnc(C(=O)N3CCc4[nH]cnc4[C@H]3c3cc4cccc(C(F)F)n4n3)o2)n1 [Example 1594]	< 500 nM
Cc1cccn2nc([C@@H]3c4nc[nH]c4CCN3C(=O)c3ncnn3C)cc12 [Example 838]	< 500 nM
Cc1cccn2nc([C@H]3c4nc[nH]c4CCN3C(=O)c3nnc(C(C)C)o3)cc12 [Example 1451]	> 5000 nM
O=C(c1ocnc1C(F)F)N1CCc2[nH]cnc2[C@@H]1c1cc2ccccn2n1 [Example 631]	1000 to 5000 nM
CC(C)(O)c1nc(Br)c(C(=O)N2CCc3[nH]cnc3[C@@H]2c2cc3ccccn3n2)o1 [Example 677]	> 5000 nM
O=C(c1nnc(-c2ccn(C(F)(F)F)n2)o1)N1CCc2[nH]cnc2[C@H]1c1cc2c(C(F)(F)F)cccn2n1 [Example 1512]	< 500 nM
CC(C)c1nnc(C(=O)N2CCc3[nH]cnc3[C@@H]2c2cc3ccccn3n2)o1 [Example 1449]	1000 to 5000 nM
Cc1cccn2nc([C@@H]3c4nc[nH]c4CCN3C(=O)c3nnc(-c4cnn(C)c4)o3)cc12 [Example 748]	< 500 nM
Cn1nc(Cl)nc1C(=O)N1CCc2[nH]cnc2[C@@H]1c1cc2ccccn2n1 [Example 695]	> 5000 nM
Cc1cccn2nc([C@H]3c4nc[nH]c4CCN3C(=O)c3oc(C(C)(C)F)nc3C(F)F)cc12 [Example 1217]	< 500 nM
O=C(c1nnc(-c2ncccn2)o1)N1CCc2[nH]cnc2[C@H]1c1cc2c(C(F)(F)F)cccn2n1 [Example 1381]	500 to 1000 nM
Cc1cccc2cc([C@@H]3c4nc[nH]c4CCN3C(=O)c3oc([C@H](C)O)nc3C(F)F)nn12 [Example 1152]	< 500 nM
CC(C)(F)c1nnc(C(=O)N2CCc3[nH]cnc3[C@@H]2c2cc3c(C(F)F)cccn3n2)o1 [Example 1351]	> 5000 nM
C[C@@H](O)c1nc(C(F)F)c(C(=O)N2CCc3[nH]cnc3[C@@H]2c2cc3cccc(Cl)n3n2)o1 [Example 1197]	1000 to 5000 nM
Cc1ncoc1C(=O)N1CCc2[nH]cnc2[C@H]1c1cc2ccccn2n1 [Example 606]	< 500 nM
O=C(c1ocnc1C(F)F)N1CCc2[nH]cnc2[C@@H]1c1cc2cccc(F)n2n1 [Example 1203]	1000 to 5000 nM
